Reference for the values: patent US11241013B2

# Tested on: Pythium ultimum
# Test Description: Amended agar assay
# Type: cell-based
# Experimental Context: Globisporangium ultimum; amended PDA agar, 2 ppm, % reduction in colony growth vs control plate, 18° C.
Attribute Measured: inhibition of growth at 2 ppm

Here is how some compounds turned out for inhibition of growth at 2 ppm.
{"Compound": "Cn1nnnc1-n1c(OCc2cccc(NCc3cccc(Cl)c3)n2)nc2ccccc21 [Example 85]", "inhibition of growth at 2 ppm": "> 99%"}
{"Compound": "Cn1nnnc1-n1c(OCc2cc(N3CCOCC3)ccn2)nc2c(Cl)cccc21 [Example 75]", "inhibition of growth at 2 ppm": "50 to 99%"}
{"Compound": "COc1ccnc(COc2nc3ccccc3n2-c2nnnn2C)c1OC [Example 13]", "inhibition of growth at 2 ppm": "50 to 99%"}
{"Compound": "Nc1cccc(COc2nc3ccccc3n2-c2ncncc2Cl)n1 [Example 9]", "inhibition of growth at 2 ppm": "< 50%"}
{"Compound": "CCCNc1cccc(COc2nc3c(Br)cccc3n2-c2nnnn2C)n1 [Example 99]", "inhibition of growth at 2 ppm": "> 99%"}

Hi there! I need inhibition of growth at 2 ppm for each item below, if you can.
1. Cn1nnnc1-n1c(OCc2ccc3ccccc3n2)nc2c(Cl)cccc21 [Example 67]
2. Cc1cccc(CNc2cccc(COc3nc4ccccc4n3-c3nnnn3C)n2)c1 [Example 95]

Out:
> 99%
> 99%

Hi there! I need inhibition of growth at 2 ppm for each item below, if you can.
1. Cn1nnnc1-n1c(OCc2cccc(NCc3ccccc3Cl)n2)nc2ccccc21 [Example 92]
2. Cc1cccnc1COc1nc2ccccc2n1-c1nnnn1C [Example 3]

Out:
1: > 99%; 2: 50 to 99%
